Field: CC50 at 7 days. Provide a value for each of the compounds that follow.
EXPERIMENTAL_DETAILS: In vitro cytotoxicity assay (MTT cell viability) in HepG2 cells
Type: cell-based, human
CONDITION_SUMMARY: human

Solved entries:
Cc1cc(NC(=O)c2c(C)c(C(=O)C(=O)N[C@@H]3CCc4nc(N)sc4C3)n(C)c2C)ccc1F [Example 76] | 5 to 30 µM
Cc1cc(NC(=O)c2c(C)c(C(=O)C(=O)NC(C)(C)c3noc(CN(C)C)n3)n(C)c2C)cnc1F [Example 200] | > 30 µM
Cc1cc(NC(=O)c2c(C)c(C(=O)C(=O)NCC(C)(C)O)n(C)c2Cl)ccc1F [Example 388] | 5 to 30 µM
CC(C)(O)CNC(=O)C(=O)c1c(Cl)c(C(=O)Nc2ccc(F)c(Cl)c2)c2n1CCC2 [Example 557] | 5 to 30 µM

Consider the following items and state reported CC50 at 7 days for each.
1. COC(=O)[C@@H](NC(=O)C(=O)c1c(C)c(C(=O)Nc2ccc(F)c(C)c2)c(C)n1C)[C@H](C)O [Example 45]
2. Cc1cc(NC(=O)c2c(C)c(C(=O)C(=O)N[C@H]3C[C@H](O)C3)n3c2CCCC3)ccc1F [Example 438]
3. Cc1c(C(=O)Nc2cncc(Cl)c2)c(C)n(C)c1C(=O)C(=O)N[C@H](C)C(F)(F)F [Example 727]

1: > 30 µM; 2: > 30 µM; 3: > 30 µM
